Source: patent US20260167959A1

# Test system: Renilla luciferase RNA
# Protocol text: Barcoded aptazyme variant library screen: un-cleaved Renilla luciferase RNA by barcode read counts, HEK293-T cells
# Type: cell-based
# Experimental parameters: un-cleaved Renilla luciferase RNA, HEK293-T cells cultured with 1 mM theophylline (ON) over without theophylline (OFF); barcode read counts, triplicate
Assay metric: Fold change in RNA expression between the ON state and the OFF state (fold)
Give the quantity in fold, number only.

Prompt: Give the measured Fold change in RNA expression between the ON state and the OFF state of RA272 (nucleic acid, expressed or natural sequence) DNA: GCGCGTCCTGGATTCGCGGAAACGCGTACATCCAGCTGACGAGTCCCAAATAGGACGAAACGCGCAGAATACCAGCATCGTCTTGATGCCCTTGGAAGTCT .
Completion: 1.0

Prompt: Give the measured Fold change in RNA expression between the ON state and the OFF state of RA050 (nucleic acid, expressed or natural sequence) DNA: GCGCGTCCTGGATTCGCGGAAACGCGTACATCCAGCTGACGAGAATACCAGCATCGTCTTGATGCCCTTGGAAGTCTCGCGAGTCCCAAATAGGACGAAACGCGC .
Completion: 2.0

Prompt: Give the measured Fold change in RNA expression between the ON state and the OFF state of RA281 (nucleic acid, expressed or natural sequence) DNA: GCGCGTCCTGGATTCGCGGAAACGCGTACATCCAGCTGACGAGTCCCAAATACGAGAATACCAGCATCGTCTTGATGCCCTTGGAAGTCTCGGGACGAAACGCGC .
Completion: 1.0

Prompt: Give the measured Fold change in RNA expression between the ON state and the OFF state of RA248 (nucleic acid, expressed or natural sequence) DNA: GCGCGTCCTGGATTCGCGGAAACGCGTACATCCAGCTGACGAGTCCAGTGATACCAGCATCGTCTTGATGCCCTTGGCAGCACTCAAATAGGACGAAACGCGC .
Completion: 1.1
